# experimentalProtocol: NCI Yeast Anticancer Drug Screen. Data for the bub3 strain (AID 167)
# measurementConditions: S. cerevisiae bub3 mutant strain, at 50.0 µM, active compounds read high
This is part of a sample that, as a whole, favours compounds with a hit. Of some 79,000 tested, about 15% had one in any assay.
In this section we review reported growth inhibition values for a set of molecules.
Reply with just the number (in %).

Record excerpt, results attached:
molecule `O=C(Cc1ccc(N(CCCl)CCCl)cc1)NC1CCCC1` , growth inhibition observed: -2.3

molecule `Nc1cc(N=Nc2ccc([As](=O)(O)O)cc2)ccc1O` , growth inhibition observed: 16.6

molecule `CCc1ccc([N+](=O)[O-])cc1` , growth inhibition observed: 1.35

molecule `c1ccc2nc(-c3ccc4ccccc4n3)ccc2c1` , growth inhibition observed: -13.7

molecule `CNCCc1ccc(O)c2ccc3ccc(OC)c(O)c3c12` , growth inhibition observed: -17.3

molecule `N#Cc1ccc(/C=C/C(=O)O)cc1` , growth inhibition observed: -9.9

molecule FC1(F)[Se]C2C3CCC(C3)C2C1(F)F (configuration not stated) , growth inhibition observed: -0.15

molecule `CN(N)c1ccc([N+](=O)[O-])cc1[N+](=O)[O-]` , growth inhibition observed: -3.2

Next:
molecule `[Cl][Pt][Cl].c1ccc([PH+](c2ccccc2)c2ccccc2)cc1.c1ccc([PH+](c2ccccc2)c2ccccc2)cc1` , growth inhibition observed: -1.6

molecule `O=C(Nc1c(O)[nH]c(=S)[nH]c1=O)c1ccccn1` , growth inhibition observed: -8.3

molecule `CCCCCCCC(=O)O.[Ni]` , growth inhibition observed: -18.4

molecule `CCCC/C=C(/C)C1(CC)C(=O)NC(=O)NC1=O` , growth inhibition observed: -7.3

* * *

# experimentalProtocol: NCI Yeast Anticancer Drug Screen. Data for the sgs1 mgt1 strain (AID 161);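 note: 0% = growth of cultures given vehicle only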
# measurementConditions: S. cerevisiae sgs1 mgt1 strain, at 50.0 µM
About 79,000 compounds went through this panel and 15% of them were active in at least one assay; those are over-represented in the sample as a whole. Calls of active or inactive are those of the source. Cut-off read from the data, not from the text of the source: active = growth inhibition above about 70%; inactive = the rest.
Mark one answer only. Choices: t (active), f (inactive)

Example cases with answers are listed next.
Recorded call for N#CC(OC1OC(C(=O)O)C(O)C(O)C1O)c1ccccc1 (configuration not stated) ? f

Recorded call for `O=[As](O)(O)c1cccc(O)c1` ? f

Next:
Recorded call for `CC(=O)[O-].CC(=O)[O-].[Mn+2].c1ccc(/C(=N\Nc2ccccn2)c2ccccn2)cc1` ? t

Recorded call for O=C1c2ccccc2OP(=O)(OCC(F)(F)F)OC1(C(F)(F)F)C(F)(F)F (configuration not stated) ? f

Recorded call for `COc1cc2c(c3oc4cccc(O)c4c(=O)c13)[C@@H]1C=CO[C@@H]1O2` ? f

Recorded call for `COc1ccc(-n2c(C)nc3ccccc3c2=O)cc1CN(CCCl)CCCl` ? f

Recorded call for `COc1ccc2c(C3(O)CCNCC3)c[nH]c2c1` ? f

Recorded call for `O=[N+]([O-])c1cccc2cccnc12` ? f

Recorded call for `CC(=O)Cc1ccc2c(c1)OCO2` ? f

Recorded call for `CCOP(=O)(OCC)O/N=C(/C#N)c1ccccc1` ? f

Recorded call for `Cc1cccc(C)c1NC(N)=S` ? f

Recorded call for `CC1(C)N=C(N)N=C(N)N1c1ccc(CCc2cc(Cl)ccc2S(=O)(=O)F)c(Cl)c1` ? t

Recorded call for `ClCc1ccc(Cl)c(Cl)c1` ? f

Recorded call for CC(=O)C1CCC2C3CC=C4CC(OOS(=O)c5ccc(C)cc5)CCC4(C)C3CCC12C (configuration not stated) ? f

Recorded call for CC(C)CC1N=C(NN=C(CCl)CCl)SP1(=O)NCCCCCCNP1(=O)SC(NN=C(CCl)CCl)=NC1CC(C)C (configuration not stated) ? f

Recorded call for `N.N.N.N.N.O=C([O-])C(=O)[O-].[Co+3].[O-][Cl+3]([O-])([O-])O.[O-][Cl+3]([O-])([O-])[O-]` ? f

Recorded call for `Cc1cccc(CCl)c1` ? f

* * *

In this section we review reported growth inhibition values for a set of compounds.
# experimentalProtocol: NCI Yeast Anticancer Drug Screen. Data for the rad50 strain (AID 155);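 note: 0% = growth of vehicle-only cultures of the same strain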
# measurementConditions: S. cerevisiae rad50 strain growth inhibition; at 50.0 µM; active compounds read high
# Method: Growth inhibition of yeast strains with defined genetic alterations is measured as a screen for potential anti-cancer activity. Selected strains with alterations in DNA damage repair or cell cycle control were exposed to compounds and growth inhibition was measured relative to vehicle treated controls. The strain used in this assay is rad50
Compounds without any hit were thinned out: in the full panel of roughly 79,000, 15% have a hit.
Reply with just the number (in %).

Record excerpt, results attached:
compound `CC(=O)Cc1ccc2c(c1)OCO2` , growth inhibition observed: 13.2

compound COC(=O)C1=C(C)NC(C)=C2C(=O)Oc3ccccc3C12 (configuration not stated) , growth inhibition observed: 4.75

compound Cc1cn([C@H]2CC3C(CON3C)O2)c(=O)[nH]c1=O (some centres not stated) , growth inhibition observed: 3.3

compound COc1ccc(C2C=C(c3ccc4c(c3)OCO4)Oc3c2c(=O)oc2ccccc32)cc1OC (configuration not stated) , growth inhibition observed: 11.5

compound COc1cc2c(c(OC)c1OC)CC1c3c(cc4c(c3-2)OCO4)CCN1C (configuration not stated) , growth inhibition observed: -5.85

compound `CN(C)/N=C/c1c[nH]c2ccccc12` , growth inhibition observed: -13.9

compound O=C(O)CP(=S)(S)c1ccccc1 (configuration not stated) , growth inhibition observed: -28.5

compound `C1CN([PH+](N2CC2)N2CC2)CCO1.C1CN([PH+](N2CC2)N2CC2)CCO1.[Cl][Pt][Cl]` , growth inhibition observed: 5.3

compound C/C(CCl)=N/NC1=NC(C)(CCC2(C)N=C(N/N=C(/C)CCl)SP2(=O)NC23CC4CC(CC(C4)C2)C3)P(=O)(NC23CC4CC(CC(C4)C2)C3)S1 (configuration not stated) , growth inhibition observed: -9.25

compound CC(=O)OCC1OC([Se-])C(OC(C)=O)C(OC(C)=O)C1OC(C)=O.N#CCC[PH+](CCC#N)CCC#N.[Au+] (configuration not stated) , growth inhibition observed: 7.35

Next:
compound CC(O)c1ccc(Br)cc1 (configuration not stated) , growth inhibition observed: -7.95

compound `CCOc1ccc(/C=C/c2cc(OC)c(OC)c(OC)c2)cc1` , growth inhibition observed: -27.9

compound CC(C)N(C(C)C)P(OCCC#N)OC1CC(n2cnc3c(=O)[nH]cnc32)OC1COC(=O)NCCCCCCNC(=O)OC(C)(C)c1ccc(-c2ccccc2)cc1 (configuration not stated) , growth inhibition observed: -11.2

compound `C=CCSc1nc2ccccc2c(=O)n1-c1cc(OC)c(Cl)cc1OC` , growth inhibition observed: 9

compound `N.N.N.O=[N+]([O-])[O-].O=[N+]([O-])[O-].O=[N+]([O-])[O-].O=[N+]([O-])[O-].[Co+3]` , growth inhibition observed: 11.6

* * *

# experimentalProtocol: NCI Yeast Anticancer Drug Screen. Data for the cln2 rad14 strain (AID 165);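 note: 0% = growth equal to vehicle treated cultures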
# measurementConditions: S. cerevisiae cln2 rad14 strain, at 50.0 µM, active compounds read high
The panel holds about 79,000 compounds, 15% with a hit somewhere; the sample as a whole holds those more often.
Label Y when growth inhibition is at or above 70%; otherwise label N.

Example cases with answers are listed next.
Decide: growth inhibition of `[NH2-].[NH2-].[NH2-].[NH2-].[NH2-].[NH2-].[Ru+6]` >= 70%? N

Decide: growth inhibition of O=NN1CCCCCC1C(=O)O (stereo unspecified) >= 70%? N

Next:
Decide: growth inhibition of S=P(C1CCCCC1)(C1CCCCC1)C(c1cccnc1)N1CCCC1 (stereo unspecified) >= 70%? N

Decide: growth inhibition of `CN(C)C(=S)Oc1c(S(=O)(=O)F)ccc(Cl)c1Cl` >= 70%? Y

Decide: growth inhibition of COC(=O)C1=C(O)C(C(=O)OC)C2/C(=[N+](/[O-])O)c3c(cc([N+](=O)[O-])cc3[N+](=O)[O-])C1C2[N+](=O)[O-] (stereo unspecified) >= 70%? N

Decide: growth inhibition of `CC(=O)Oc1cccc(C#N)c1` >= 70%? N

* * *

# experimentalProtocol: NCI Yeast Anticancer Drug Screen. Data for the sgs1 mgt1 strain (AID 161);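 note: 0% = growth of cultures given vehicle only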
# measurementConditions: S. cerevisiae sgs1 mgt1 strain, at 50.0 µM
Compounds without any hit were thinned out: in the full panel of roughly 79,000, 15% have a hit. Activity calls are given as the source filed them. Rule as the data show it: active = growth inhibition above about 70%; inactive = the rest.
Mark one answer only. Choices: 1 for active, 0 for inactive

Example cases with answers are listed next.
Recorded call for CC(C)c1cc2c(cc1O)C1(C)CCCC(C)(C)C1=CC2=O (stereo not given) ? 0

Recorded call for `COC(=O)C1=CO[C@@H](C)[C@@H]2CN3CCc4c([nH]c5cc(OC)ccc45)[C@@H]3C[C@H]12` ? 0

Recorded call for `CNc1ccccc1C(=O)O` ? 0

Recorded call for `CCCC1(C(C)C)C(=O)NC(=S)NC1=O` ? 0

Recorded call for `C(#CP(c1ccccc1)c1ccccc1)c1ccccc1` ? 1

Next:
Recorded call for CC12CC/C(=C3/C=CC(=O)S3)C=C1CCC1C2CCC2(C)C(O)CCC12 (stereo not given) ? 0

Recorded call for `Oc1ccc(Br)cc1` ? 0

Recorded call for `CN(C)P1(N(C)C)=NP(c2ccccc2)(c2ccccc2)=NP(N(C)C)(N(C)C)=N1` ? 0

Recorded call for `CCNC(=O)Oc1c(Cl)cc(S(=O)(=O)F)cc1Cl` ? 0

Recorded call for CCC(=O)OC1(c2ccccc2)CCN(CCC(=O)c2ccccc2)CC1C (stereo not given) ? 0

Recorded call for `CC[CH2][Sn]([Br])([CH2]CC(=O)OC)[CH2]CC(=O)OC` ? 0

Recorded call for `CCCCCCCCCCCCCCCC[As](=O)(O)CCCCCCCCCCCCCCCC` ? 0

Recorded call for `CCC(CC)C(=O)Cl` ? 0

Recorded call for Oc1cccc(/C=N\NC(=S)NC2CN3CCC2CC3)c1 (stereo not given) ? 0

Recorded call for `BrCC[N+]12CCCN1CCC2` ? 0

Recorded call for `CO[C@@]12[C@H](COC(N)=O)C3=C(C(=O)C(C)=C(NCCO)C3=O)N1C[C@@H]1N[C@@H]12` ? 0
